System: MS2 coat protein
TEST DETAILS: apparent KD of MS2 coat protein; designed switch direction (-1 OFF switch, 1 ON switch): 1; higher = weaker reporter binding
PROTOCOL CONDITIONS: Eterna round: R95; input ligand: FMN 200 uM
MEASUREMENT LABEL: apparent KD of MS2 coat protein (nM)
Answer in nM, number only, no unit symbol.

Solved entries:
AGCUAUCGCGUACGAUAGCUGAAGCAUGUACAUGAGGAUCACCCAUGUCAUGUACAAGCUUUUUGCUCGUCUUAUUG [JL-shm-2.26 JL mod] (puzzle: Sensor for hsa-mir-208a); 341
AGUCCAGCCUGAGCUGGACAAAAGCAUGUACAUGAGGAUCACCCAUGUCAUGUACAAGCUUUUUGCUCGUCUUGAUA [Zipper 49 - 8] (puzzle: Sensor for hsa-mir-208a); 416
GUUAUACAUGAGGAUCACCCAUGUCAAUGUAGUCGAGGAUAUGGGCAGCUAUGAGGCGUACUAGAAGGCGAAGAGG [JL-ss1-3.11 ViennaUCT mod] (puzzle: Same State 1); 81.6

Exercise: Fill in: apparent KD of MS2 coat protein of AUCAAAACAAGUUGCAGUGUUCGUCUUUCACAUGAGGAUCACCCAUGUAAUAGCCCAGUGGAAGCGCUCGGGCUACC [Esgevexe] (puzzle: Sensor for hsa-mir-208a) is ___
Key: 38.7

Exercise: Fill in: apparent KD of MS2 coat protein of AUAAGUUUGAUGCUCGUCUCUCCGUACAGACAUGAGGAUCACCCAUGUAGUCGGGAAGUAGCCCGGCCUGUAUGGCC [Magequ] (puzzle: Sensor for hsa-mir-208a) is ___
Key: 15.2

* * *

Test system: MS2 coat protein
TEST DETAILS: apparent KD of MS2 coat protein; designed switch direction (-1 OFF switch, 1 ON switch): 1; higher = weaker reporter binding
PROTOCOL CONDITIONS: input ligand: FMN 200 uM
MEASUREMENT LABEL: apparent KD of MS2 coat protein
Write the numeric value and follow it with the unit.

Solved entries:
GCGAGGAUAUGGAGAGGAUCACCCUCUAGAAGGCGCGAAGGCGAGGAUAUGGAGAGGAUCACCCUCUAGAAGGCGCACUUCUCU [pwkr ssNG3 DX 2xF5 +2xFMN.5] (Eterna round: R96, puzzle: Same State NG 3); 222 nM
CCGAUGGUAUACUAGGAUAUGGGCGCCCUUACAUGAGGAUCACCCAUGUUAUCACAAAUCCGCGGCCAGAAGGAGUUCAUGGGAG [Ustiririra] (Eterna round: R96, puzzle: Same State 2); 165 nM
AGACAUGAGGAUCACCCAUGUAUACACUGUAUCAGUGUAACAUAGGAUAUCCACCGCCAUGCUGUGGAGAAGGAUGAAACGGGC [Matearen] (Eterna round: R96, puzzle: Same State NG 3); 175 nM
AGACACAUGAGGAUCACCCAUGUUACGAGCUUAGCUCGGACACAGGAUAUCCGGUCCUAGAGACCGGAGAAGGGUGCCUGAUAA [Zara MOD3] (Eterna round: R96, puzzle: Same State NG 3); 568 nM

Exercise: Fill in: apparent KD of MS2 coat protein of AGUAAGAGUCAAGGAUAUGCUACCGUUUCGGUAGCAGAAGGUGAUCACAUGAGGAUCACCCAUGUAUAAAUGCGUGAGCGUGCU [JL SSNG1 3.63] (Eterna round: R96, puzzle: Same State NG 1) is ___
Key: 679 nM

From: the supplement of paper PMC9170038
